Tested on: consortium
Assay: Degradation of other N-alkyl dithiocarbamates by the consortium (1000 ml bioreactor)
Conditions: time 5 h; pH 7.2, 20-27° C.
quantity_kind: % degradation (percent loss over the abiotic Control) (%)

molecule: CCN(CC)C(=S)S [Diethyl Dithiocarbamate, sodium diethyl dithiocarbamate]
quantitative_readout: 13.29

molecule: CCCCN(CCCC)C(=S)[S-].[Na+] [Dibutyl Dithiocarbamate, Sodium Dibutyl dithiocarbamates]
quantitative_readout: 3.98

molecule: CCCN(CCC)C(=S)[S-].[Na+] [DiPropyl Dithiocarbamate, Sodium Dipropyl dithiocarbamates]
quantitative_readout: 3.49

molecule: CN(C)C(=S)[S-].[Na+] [SDM, Sodium dimethyl dithiocarbamate]
quantitative_readout: 12.1

---

System: consortium
Test: Degradation of other N-alkyl dithiocarbamates by the consortium (1000 ml bioreactor)
Details: time 4 h; pH 7.2, 20-27° C.
Measured % degradation (percent loss over the abiotic Control) of individual entries
quantity_kind: % degradation (percent loss over the abiotic Control) (%)

compound: CCCCN(CCCC)C(=S)[S-].[Na+] [Dibutyl Dithiocarbamate, Sodium Dibutyl dithiocarbamates]
quantitative_readout: 3.81

compound: CCCN(CCC)C(=S)[S-].[Na+] [DiPropyl Dithiocarbamate, Sodium Dipropyl dithiocarbamates]
quantitative_readout: 3.56

compound: CCN(CC)C(=S)S [Diethyl Dithiocarbamate, sodium diethyl dithiocarbamate]
quantitative_readout: 8.18

compound: CN(C)C(=S)[S-].[Na+] [SDM, Sodium dimethyl dithiocarbamate]
quantitative_readout: 12.3

---

Measured % degradation (percent loss over the abiotic Control) of individual entries
Tested on: consortium
Test: Degradation of other N-alkyl dithiocarbamates by the consortium (1000 ml bioreactor)
Details: time 1.5 h; pH 7.2, 20-27° C.
quantity_kind: % degradation (percent loss over the abiotic Control)

molecule: CN(C)C(=S)[S-].[Na+] [SDM, Sodium dimethyl dithiocarbamate]
result: 9.5%
//
molecule: CCCCN(CCCC)C(=S)[S-].[Na+] [Dibutyl Dithiocarbamate, Sodium Dibutyl dithiocarbamates]
result: 4.10%
//
molecule: CCCN(CCC)C(=S)[S-].[Na+] [DiPropyl Dithiocarbamate, Sodium Dipropyl dithiocarbamates]
result: 4.21%
//
molecule: CCN(CC)C(=S)S [Diethyl Dithiocarbamate, sodium diethyl dithiocarbamate]
result: 8.78%

---

Tested on: consortium
Experiment: Degradation of other N-alkyl dithiocarbamates by the consortium (1000 ml bioreactor)
Details: time 73 h; pH 7.2, 20-27° C.
Measured % degradation (percent loss over the abiotic Control) of individual entries
quantity_kind: % degradation (percent loss over the abiotic Control) (%)

molecule: CN(C)C(=S)[S-].[Na+] [SDM, Sodium dimethyl dithiocarbamate]
unit_abbreviation: %
quantitative_readout: 88.7
--
molecule: CCCCN(CCCC)C(=S)[S-].[Na+] [Dibutyl Dithiocarbamate, Sodium Dibutyl dithiocarbamates]
unit_abbreviation: %
quantitative_readout: 7.93
--
molecule: CCN(CC)C(=S)S [Diethyl Dithiocarbamate, sodium diethyl dithiocarbamate]
unit_abbreviation: %
quantitative_readout: 23.00
--
molecule: CCCN(CCC)C(=S)[S-].[Na+] [DiPropyl Dithiocarbamate, Sodium Dipropyl dithiocarbamates]
unit_abbreviation: %
quantitative_readout: 11.24

---

Tested on: consortium
Experiment: Degradation of other N-alkyl dithiocarbamates by the consortium (1000 ml bioreactor)
Conditions: time 51 h; pH 7.2, 20-27° C.
Measured % degradation (percent loss over the abiotic Control) of individual entries
quantity_kind: % degradation (percent loss over the abiotic Control) (%)

molecule: CCCN(CCC)C(=S)[S-].[Na+] [DiPropyl Dithiocarbamate, Sodium Dipropyl dithiocarbamates]
quantitative_readout: 9.43
--
molecule: CN(C)C(=S)[S-].[Na+] [SDM, Sodium dimethyl dithiocarbamate]
quantitative_readout: 77.8
--
molecule: CCN(CC)C(=S)S [Diethyl Dithiocarbamate, sodium diethyl dithiocarbamate]
quantitative_readout: 21.00
--
molecule: CCCCN(CCCC)C(=S)[S-].[Na+] [Dibutyl Dithiocarbamate, Sodium Dibutyl dithiocarbamates]
quantitative_readout: 6.66
